Each recorded value in this set is attributed to ChEMBL document CHEMBL1157450.

target: Cytochrome P450 2D6 (Homo sapiens, UniProt P10635); assay: Inhibition of CYP2D6; assay type: ADME
Sequence (P10635 whole entry): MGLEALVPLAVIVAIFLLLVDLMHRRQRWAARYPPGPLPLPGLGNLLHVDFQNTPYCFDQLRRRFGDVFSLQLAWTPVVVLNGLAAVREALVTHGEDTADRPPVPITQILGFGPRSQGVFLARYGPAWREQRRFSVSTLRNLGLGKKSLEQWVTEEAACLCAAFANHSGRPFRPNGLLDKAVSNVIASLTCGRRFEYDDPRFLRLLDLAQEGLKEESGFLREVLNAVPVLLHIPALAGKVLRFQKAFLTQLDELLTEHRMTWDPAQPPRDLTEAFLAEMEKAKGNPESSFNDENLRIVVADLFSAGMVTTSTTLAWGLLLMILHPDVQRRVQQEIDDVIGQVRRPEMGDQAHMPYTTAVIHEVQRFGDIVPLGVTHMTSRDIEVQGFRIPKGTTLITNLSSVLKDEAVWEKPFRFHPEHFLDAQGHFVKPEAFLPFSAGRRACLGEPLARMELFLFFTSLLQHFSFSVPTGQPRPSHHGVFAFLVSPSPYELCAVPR
property.name: pIC50
// returns pIC50 (minus log10 of molar concentration), number only

input: Recorded pIC50 of COCCN(CC(=O)N(C)C(CN1CCCC1)c1ccc(-c2ccc(C(N)=O)cc2)cc1)c1ccc(Cl)c(Cl)c1 (stereo not drawn) , please.
output: 5.21

input: Recorded pIC50 of CN(CC(=O)N(C)C(CN1CCCC1)c1ccccc1)c1ccc(Cl)c(Cl)c1 (racemic) , please.
output: 6.80

input: What measured pIC50 goes with CN(C(=O)CN1C(=O)COc2cc(Cl)c(Cl)cc21)C(CN1CCOCC1)c1ccc(-c2ccccc2)cc1 (racemic) ?
output: 4.48

input: Any idea what its pIC50 is? The molecule is CN(C(=O)CN1C(=O)COc2cc(Cl)c(Cl)cc21)[C@H](CN1CCOCC1)c1ccc(-c2ccccc2)cc1
output: 4.48

input: Query (molecule): CNC(=O)c1cccc(-c2ccc(C(CN3CCOCC3)N(C)C(=O)Cn3c(=O)cnc4cc(C)c(C)cc43)cc2)c1 (stereo not drawn) ; field requested: pIC50
output: 4.48

input: Which pIC50 value is on record for CN(C(=O)CN(CC#N)c1ccc(Cl)c(Cl)c1)C(CN1CCCC1)c1ccc(-c2cccc(C(N)=O)c2)cc1 (stereo not drawn) ?
output: 5.46

input: Look up pIC50: COc1cccc(-c2ccc(C(CN3CCOCC3)N(C)C(=O)CN3C(=O)COc4cc(Cl)c(Cl)cc43)cc2)c1 (stereo not drawn)
output: 4.77

input: Name the reported pIC50 value associated with the molecule CN(C(=O)CN1C(=O)COc2cc(Cl)c(Cl)cc21)[C@@H](CN1CCOCC1)c1ccc(-c2ccccc2)cc1
output: 4.48

* * *

Molecular target: Urotensin-2 receptor (Homo sapiens)
Sequence (Q9UKP6 whole entry): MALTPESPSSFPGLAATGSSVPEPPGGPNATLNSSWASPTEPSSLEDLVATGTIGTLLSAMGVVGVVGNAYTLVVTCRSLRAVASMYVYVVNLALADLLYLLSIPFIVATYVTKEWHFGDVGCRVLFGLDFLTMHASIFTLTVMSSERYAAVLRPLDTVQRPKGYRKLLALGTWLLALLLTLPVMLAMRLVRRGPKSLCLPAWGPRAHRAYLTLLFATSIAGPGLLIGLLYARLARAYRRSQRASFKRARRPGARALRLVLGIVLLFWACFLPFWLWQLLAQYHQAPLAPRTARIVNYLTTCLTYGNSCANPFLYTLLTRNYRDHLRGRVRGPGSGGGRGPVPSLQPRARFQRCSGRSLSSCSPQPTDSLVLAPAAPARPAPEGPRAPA
Assay: Binding affinity to human urotensin-2 receptor
Answer each item with its documented pKi.
pKi here: minus log base 10 of the concentration, concentration in moles per litre.

input: Would you mind telling me what pKi value was observed for CN(CC(=O)N(C)C(CN1CCCC1)c1ccc(-c2ccccc2)cc1)c1ccc(Cl)c(Cl)c1 (stereo not drawn) ?
output: 7.70

input: Which pKi reading was recorded for the compound CN(C(=O)Cc1ccc(Cl)c(Cl)c1)[C@H](CN1CCCC1)c1ccccc1 ?
output: 5.40

input: Returns the measured pKi for the input compound. Input: CN(C(=O)CN1C(=O)COc2cc(Cl)c(Cl)cc21)[C@@H](CN1CCOCC1)c1ccc(-c2ccccc2)cc1
output: 7.80

input: Please look up its pKi: COc1cccc(-c2ccc(C(CN3CCOCC3)N(C)C(=O)CN3C(=O)COc4cc(Cl)c(Cl)cc43)cc2)c1 (stereo not drawn)
output: 8.30

input: Recorded pKi for CN(CC(=O)N(C)C(CN1CCCC1)c1ccccc1)c1ccc(Cl)c(Cl)c1 (racemic) , please?
output: 7.82

input: Fill blank: measured pKi of the compound CN(CC(=O)N1CCC[C@H](c2ccccc2)[C@@H]1CN1CCCC1)c1ccc(Cl)c(Cl)c1 is ____.
output: 8.22

input: Requested field: pKi. Item: CN(C(=O)CN1C(=O)COc2cc(Cl)c(Cl)cc21)[C@H](CN1CCOCC1)c1ccc(-c2ccccc2)cc1
output: 6.20

input: Dear colleague, I am looking for the recorded pKi of the following compound: CN(CC(=O)N(C)[C@H](CN1CCCC1)c1ccccc1)c1ccc(Cl)c(Cl)c1
output: 5.60

* * *

test: Half life in rat at 2 mg/kg, iv and 4 mg/kg, po; type: ADME, organism-based; conditions: in vivo
property.name: half-life (h)
The answer is to be given in h; state only the numeric part.

input: Please give the measured half-life for this compound: CN(C(=O)CN1C(=O)COc2cc(Cl)c(Cl)cc21)[C@@H](CN1CCOCC1)c1ccc(-c2ccccc2)cc1
output: 2.2

input: Tell me the measured half-life of COc1cccc(-c2ccc(C(CN3CCOCC3)N(C)C(=O)CN3C(=O)COc4cc(Cl)c(Cl)cc43)cc2)c1 (stereo not drawn) , please.
output: 3.4

input: Which half-life is reported for this compound? CNC(=O)c1cccc(-c2ccc(C(CN3CCOCC3)N(C)C(=O)Cn3c(=O)cnc4cc(Cl)c(Cl)cc43)cc2)c1 (stereo not drawn)
output: 1.5

input: Returns the measured half-life for the input compound. Input: CC(=O)Nc1ccc(-c2ccc(C(CN3CCOCC3)N(C)C(=O)CN3C(=O)COc4cc(C)c(C)cc43)cc2)cc1 (stereo not drawn)
output: 1.7

input: What value of half-life has been recorded for this entry: CNC(=O)c1cccc(-c2ccc(C(CN3CCOCC3)N(C)C(=O)Cn3c(=O)cnc4cc(C)c(C)cc43)cc2)c1 (stereo not drawn)
output: 1

input: Consider the compound CN(C(=O)CN1C(=O)COc2cc(Cl)c(Cl)cc21)C(CN1CCOCC1)c1ccc(-c2ccccc2)cc1 (racemic) and give its measured half-life.
output: 2.4

input: Which half-life is listed for CN(C(=O)CN1C(=O)COc2cc(Cl)c(Cl)cc21)[C@H](CN1CCOCC1)c1ccc(-c2ccccc2)cc1 ?
output: 2.6

input: Look up half-life for this compound: CN(C(=O)CN(CC#N)c1ccc(Cl)c(Cl)c1)C(CN1CCCC1)c1ccc(-c2cccc(C(N)=O)c2)cc1 (stereo not drawn)
output: 3.4

* * *

molecular target: Urotensin-2 receptor (Homo sapiens)
property.name: log10(Ki) (log10 of the value in nM)
Short version: log10 scale, Ki, nM.

input: Give the measured log10(Ki) of CN(CC(=O)N(C)[C@@H](CN1CCCC1)c1ccccc1)c1ccc(Cl)c(Cl)c1 .
output: 1.11

input: Data request, read-out log10(Ki), for CN(C(=O)CN1C(=O)COc2cc(Cl)c(Cl)cc21)C(CN1CCOCC1)c1ccc(-c2ccccc2)cc1 (racemic)
output: 1.11

input: Fill in the blank: the reported log10(Ki) of COCCN(CC(=O)N(C)C(CN1CCCC1)c1ccc(-c2ccc(C(N)=O)cc2)cc1)c1ccc(Cl)c(Cl)c1 (stereo not drawn) is ____.
output: 0.48

input: Reported log10(Ki) for CNC(=O)c1cccc(-c2ccc(C(CN3CCOCC3)N(C)C(=O)Cn3c(=O)cnc4cc(Cl)c(Cl)cc43)cc2)c1 (stereo not drawn) : what is it?
output: 0.60

input: Return reported log10(Ki); argument: CN(CC(=O)N(C)C(CN1CCOCC1)c1ccc(-c2ccccc2)cc1)c1ccc(Cl)c(Cl)c1 (stereo not drawn)
output: 2.80

input: Given CNC(=O)c1cccc(-c2ccc(C(CN3CCOCC3)N(C)C(=O)Cn3c(=O)cnc4cc(C)c(C)cc43)cc2)c1 (stereo not drawn) , state its recorded log10(Ki).
output: 0.78

input: May I ask what log10(Ki) has been recorded for CN(C(=O)CN(CC#N)c1ccc(Cl)c(Cl)c1)C(CN1CCCC1)c1ccc(-c2cccc(C(N)=O)c2)cc1 (stereo not drawn) ?
output: -0.52

input: May I ask what log10(Ki) has been recorded for CC(=O)Nc1ccc(-c2ccc(C(CN3CCOCC3)N(C)C(=O)CN3C(=O)COc4cc(C)c(C)cc43)cc2)cc1 (stereo not drawn) ?
output: 0.48

* * *

test: Clearance in rat at 2 mg/kg, iv and 4 mg/kg, po; type: ADME, organism-based; settings: in vivo
Label Not satisfied if clearance falls below 100 mL/min/kg; label Satisfied in every other case.

input: Does the molecule COc1cccc(-c2ccc(C(CN3CCOCC3)N(C)C(=O)CN3C(=O)COc4cc(Cl)c(Cl)cc43)cc2)c1 (stereo not drawn) have recorded clearance that is 100 mL/min/kg or more?
output: Satisfied

input: Decide: clearance of CN(C(=O)CN1C(=O)COc2cc(Cl)c(Cl)cc21)[C@H](CN1CCOCC1)c1ccc(-c2ccccc2)cc1 >= 100 mL/min/kg?
output: Satisfied

input: Is clearance for CN(C(=O)CN1C(=O)COc2cc(Cl)c(Cl)cc21)C(CN1CCOCC1)c1ccc(-c2ccccc2)cc1 (racemic) at or above 100 mL/min/kg?
output: Satisfied

input: Identify whether the reported clearance of the following molecule is 100 mL/min/kg or greater: CNC(=O)c1cccc(-c2ccc(C(CN3CCOCC3)N(C)C(=O)Cn3c(=O)cnc4cc(Cl)c(Cl)cc43)cc2)c1 (stereo not drawn)
output: Not satisfied

input: Does CC(=O)Nc1ccc(-c2ccc(C(CN3CCOCC3)N(C)C(=O)CN3C(=O)COc4cc(C)c(C)cc43)cc2)cc1 (stereo not drawn) have a reported clearance of at least 100 mL/min/kg?
output: Not satisfied

input: Is it the case that CNC(=O)c1cccc(-c2ccc(C(CN3CCOCC3)N(C)C(=O)Cn3c(=O)cnc4cc(C)c(C)cc43)cc2)c1 (stereo not drawn) has clearance reaching or exceeding 100 mL/min/kg?
output: Not satisfied

input: hey, is clearance for this one >= 100 mL/min/kg? CN(C(=O)CN1C(=O)COc2cc(Cl)c(Cl)cc21)[C@@H](CN1CCOCC1)c1ccc(-c2ccccc2)cc1
output: Satisfied
